B1: PKD2L1 (parent)
chain: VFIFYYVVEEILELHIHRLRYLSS

Variants of: B1
Experiment: protein stability index of a GFP-peptide fusion (GPS, HEK-293T) (PSI 1-6); higher = more stable;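 note: lentivirally expressed fusions sorted by FACS into six bins by GFP to DsRed ratio, PSI derived from sequencing read proportions per bin multiplied by bin number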
Details: c terminus: a fixed tail appended
Label met when protein stability index is at or above 3; anything below gets not met.

[[record]]
mutation_spec = "F2S"
class_name = "not met"

[[record]]
mutation_spec = "V7W"
class_name = "not met"

[[record]]
mutation_spec = "Y6S"
class_name = "met"

[[record]]
mutation_spec = "V7P"
class_name = "not met"

[[record]]
mutation_spec = "R20I"
class_name = "not met"

[[record]]
mutation_spec = "L14N"
class_name = "met"

[[record]]
mutation_spec = "E9Q"
class_name = "not met"

[[record]]
mutation_spec = "Y6P"
class_name = "not met"

[[record]]
mutation_spec = "R20V"
class_name = "met"

[[record]]
mutation_spec = "Y21N"
class_name = "not met"

[[record]]
mutation_spec = "R18E"
class_name = "not met"

[[record]]
mutation_spec = "H15Y"
class_name = "met"

[[record]]
mutation_spec = "Y5S"
class_name = "not met"

[[record]]
mutation_spec = "E13D"
class_name = "not met"

[[record]]
mutation_spec = "I3M"
class_name = "met"

[[record]]
mutation_spec = "L12E"
class_name = "not met"

[[record]]
mutation_spec = "I16E"
class_name = "not met"

[[record]]
mutation_spec = "E13V"
class_name = "met"

[[record]]
mutation_spec = "E10C"
class_name = "not met"

[[record]]
mutation_spec = "R20D"
class_name = "met"

[[record]]
mutation_spec = "E9C"
class_name = "not met"

[[record]]
mutation_spec = "L22I"
class_name = "met"

[[record]]
mutation_spec = "Y5P"
class_name = "not met"

[[record]]
mutation_spec = "F4I"
class_name = "not met"

[[record]]
mutation_spec = "F2I"
class_name = "met"

[[record]]
mutation_spec = "E13M"
class_name = "not met"

[[record]]
mutation_spec = "E10P"
class_name = "not met"

[[record]]
mutation_spec = "V7D"
class_name = "met"

[[record]]
mutation_spec = "E13T"
class_name = "not met"

[[record]]
mutation_spec = "S23E"
class_name = "not met"

[[record]]
mutation_spec = "Y6L"
class_name = "met"

[[record]]
mutation_spec = "L14I"
class_name = "not met"

[[record]]
mutation_spec = "I11M"
class_name = "not met"

[[record]]
mutation_spec = "I3S"
class_name = "not met"

[[record]]
mutation_spec = "F2G"
class_name = "met"

[[record]]
mutation_spec = "Y5F"
class_name = "not met"

[[record]]
mutation_spec = "Y21Q"
class_name = "met"

[[record]]
mutation_spec = "S23Q"
class_name = "met"

[[record]]
mutation_spec = "V1S"
class_name = "not met"

[[record]]
mutation_spec = "S24T"
class_name = "not met"

[[record]]
mutation_spec = "I11C"
class_name = "met"

[[record]]
mutation_spec = "E10T"
class_name = "not met"

